// provenance: ChEMBL document CHEMBL5214951

target: UniProtKB P21397; experiment: Competitive inhibition of human recombinant MAO-A assessed as inhibitory constant using varying levels of kynuramine as substrate by Lineweaver-burk plot analysis
readout_kind: pKi
// field semantics: pKi = negative decimal log of concentration (mol/L)

INPUT: Checklist item: pKi tested on UniProtKB P21397, entry `O=c1[nH]c2ccc(OCc3ccccc3)cc2c(=O)o1` , value?
OUTPUT: 7.28

----------
We begin with a simple list: items and their reported IC50.
biological target: Acetylcholinesterase (Homo sapiens, UniProt P22303); assay: Inhibition of human recombinant AChE using S-acetylthiocholine as substrate by DTNB reagent based spectrophotometric analysis
Sequence (P22303 whole entry): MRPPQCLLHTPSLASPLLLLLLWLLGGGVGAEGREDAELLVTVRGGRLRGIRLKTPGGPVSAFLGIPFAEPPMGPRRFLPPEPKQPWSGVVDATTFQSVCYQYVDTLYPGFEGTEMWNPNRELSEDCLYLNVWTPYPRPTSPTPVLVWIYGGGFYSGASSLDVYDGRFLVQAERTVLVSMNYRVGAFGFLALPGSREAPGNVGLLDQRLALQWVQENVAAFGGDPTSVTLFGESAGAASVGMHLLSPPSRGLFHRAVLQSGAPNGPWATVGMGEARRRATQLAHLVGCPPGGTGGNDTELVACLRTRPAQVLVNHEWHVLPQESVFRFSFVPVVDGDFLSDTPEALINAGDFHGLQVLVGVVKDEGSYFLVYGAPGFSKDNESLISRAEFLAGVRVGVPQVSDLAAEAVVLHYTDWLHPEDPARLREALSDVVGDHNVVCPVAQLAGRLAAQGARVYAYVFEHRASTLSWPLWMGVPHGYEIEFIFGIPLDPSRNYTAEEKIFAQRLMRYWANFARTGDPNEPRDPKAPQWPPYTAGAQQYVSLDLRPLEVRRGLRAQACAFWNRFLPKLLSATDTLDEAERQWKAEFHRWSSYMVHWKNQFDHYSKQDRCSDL
Put your answer as a value accompanied by its unit after it.

INPUT: Request the reported IC50 associated with `CC(C)c1ccc(COc2ccc3[nH]c(=O)oc(=O)c3c2)cc1`
OUTPUT: 55 µM

INPUT: Request the reported IC50 associated with `O=c1[nH]c2ccc(OCc3ccc(F)cc3)cc2c(=O)o1`
OUTPUT: 76.2 µM

----------
biological target: Cholinesterase (Equus caballus)
Sequence (P81908 whole entry): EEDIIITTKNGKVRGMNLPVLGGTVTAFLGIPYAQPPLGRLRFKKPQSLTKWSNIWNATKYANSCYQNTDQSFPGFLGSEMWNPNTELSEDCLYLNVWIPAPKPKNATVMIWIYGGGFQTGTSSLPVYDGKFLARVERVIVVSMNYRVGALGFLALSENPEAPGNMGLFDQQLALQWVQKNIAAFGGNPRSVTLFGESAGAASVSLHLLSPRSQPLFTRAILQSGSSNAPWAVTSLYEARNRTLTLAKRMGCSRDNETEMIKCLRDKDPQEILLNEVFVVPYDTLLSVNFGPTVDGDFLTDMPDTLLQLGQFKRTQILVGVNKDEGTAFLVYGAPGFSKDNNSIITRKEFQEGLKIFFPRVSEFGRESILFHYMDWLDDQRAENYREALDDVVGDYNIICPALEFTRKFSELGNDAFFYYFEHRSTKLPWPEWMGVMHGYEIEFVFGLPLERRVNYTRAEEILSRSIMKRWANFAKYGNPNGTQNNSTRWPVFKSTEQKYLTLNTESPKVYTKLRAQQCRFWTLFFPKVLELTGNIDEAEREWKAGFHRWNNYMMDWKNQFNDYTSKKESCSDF
We begin with a simple list: items and their reported pIC50.
// field semantics: pIC50 = negative decimal log of concentration (mol/L)

1. O=c1[nH]c2ccc(OCc3ccc(Br)cc3)cc2c(=O)o1: 4.70
2. CC(C)c1ccc(COc2ccc3[nH]c(=O)oc(=O)c3c2)cc1: 4.68
3. Cc1ccc(COc2ccc3[nH]c(=O)oc(=O)c3c2)cc1: 4.72

Continue with the compound presented below.
INPUT: Checklist item: pIC50 tested on Cholinesterase (Equus caballus), entry `O=c1[nH]c2ccc(OCc3ccc4ccccc4c3)cc2c(=O)o1` , value?
OUTPUT: 4.78

----------
Biological target: Amine oxidase [flavin-containing] A (Homo sapiens, UniProt P21397)
Sequence (P21397 whole entry): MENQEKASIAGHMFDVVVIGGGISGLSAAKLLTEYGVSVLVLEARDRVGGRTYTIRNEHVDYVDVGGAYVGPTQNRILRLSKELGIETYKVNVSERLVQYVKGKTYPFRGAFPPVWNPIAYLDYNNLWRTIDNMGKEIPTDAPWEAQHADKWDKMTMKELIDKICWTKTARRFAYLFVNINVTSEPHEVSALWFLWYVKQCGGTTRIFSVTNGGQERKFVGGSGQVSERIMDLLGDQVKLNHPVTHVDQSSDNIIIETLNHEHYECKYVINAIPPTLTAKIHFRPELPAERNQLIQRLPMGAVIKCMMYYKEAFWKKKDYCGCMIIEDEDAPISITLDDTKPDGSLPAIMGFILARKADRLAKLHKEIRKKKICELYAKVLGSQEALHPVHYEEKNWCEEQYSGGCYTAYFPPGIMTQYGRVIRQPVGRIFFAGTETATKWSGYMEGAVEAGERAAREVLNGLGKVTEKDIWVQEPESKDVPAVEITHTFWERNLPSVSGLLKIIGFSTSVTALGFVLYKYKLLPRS
We begin with a simple list: items and their reported pIC50.
// field semantics: pIC50 = negative decimal log of concentration (mol/L)

Here is how some compounds turned out for pIC50.
1. Cc1ccc(COc2ccc3[nH]c(=O)oc(=O)c3c2)cc1: 7.21
2. CC(C)c1ccc(COc2ccc3[nH]c(=O)oc(=O)c3c2)cc1: 8.00
3. O=c1[nH]c2ccc(OCc3ccc4ccccc4c3)cc2c(=O)o1: 7.19

INPUT: Request the reported pIC50 associated with `O=c1[nH]c2ccc(OCc3ccc(F)cc3)cc2c(=O)o1`
OUTPUT: 6.91

INPUT: Request the reported pIC50 associated with `O=c1[nH]c2ccc(OCc3ccc(Br)cc3)cc2c(=O)o1`
OUTPUT: 8.02

INPUT: Request the reported pIC50 associated with `O=c1[nH]c2ccc(OCc3cccc(C(F)(F)F)c3)cc2c(=O)o1`
OUTPUT: 7.08

INPUT: Request the reported pIC50 associated with `COc1cccc(COc2ccc3[nH]c(=O)oc(=O)c3c2)c1`
OUTPUT: 7.03

----------
These records show IC50 for D-amino-acid oxidase (Sus scrofa, UniProt P00371).
Please reply with the bare figure in nM and do not write the unit itself.

1. Cc1cc(C(=O)O)n[nH]1: 933

Continue with the compound presented below.
INPUT: Request the reported IC50 associated with COc1cc(/C=C/C(=O)CC(=O)/C=C/c2ccc(O)c(OC)c2)ccc1O [CURCUMIN]
OUTPUT: 1070

----------
biological target: Amine oxidase [flavin-containing] B (Homo sapiens, UniProt P27338); assay: Competitive inhibition of human recombinant MAO-B assessed as inhibitory constant using varying levels of kynuramine as substrate by Lineweaver-burk plot analysis
readout_kind: Ki (nM)
Please reply with the bare figure in nM and do not write the unit itself.

INPUT: Request the reported Ki associated with `O=c1[nH]c2ccc(OCc3ccccc3)cc2c(=O)o1`
OUTPUT: 4.3

----------
molecular target: Amine oxidase [flavin-containing] B (Homo sapiens)
pIC50: −log10 of the molar value.
# if value of pIC50 reaches 8, tag True; if it stays below, tag False

Completed entries (count: 3):
1) O=c1[nH]c2ccc(OCc3ccc4ccccc4c3)cc2c(=O)o1: False
2) O=c1[nH]c2ccc(OCc3cccc(C(F)(F)F)c3)cc2c(=O)o1: True
3) COc1cccc(COc2ccc3[nH]c(=O)oc(=O)c3c2)c1: False

Moving on to another compound below.
INPUT: Does the compound `CC(C)c1ccc(COc2ccc3[nH]c(=O)oc(=O)c3c2)cc1` have recorded pIC50 that is 8 or more?
OUTPUT: False

----------
Target: Amine oxidase [flavin-containing] B (Homo sapiens, UniProt P27338)
Sequence (P27338 whole entry): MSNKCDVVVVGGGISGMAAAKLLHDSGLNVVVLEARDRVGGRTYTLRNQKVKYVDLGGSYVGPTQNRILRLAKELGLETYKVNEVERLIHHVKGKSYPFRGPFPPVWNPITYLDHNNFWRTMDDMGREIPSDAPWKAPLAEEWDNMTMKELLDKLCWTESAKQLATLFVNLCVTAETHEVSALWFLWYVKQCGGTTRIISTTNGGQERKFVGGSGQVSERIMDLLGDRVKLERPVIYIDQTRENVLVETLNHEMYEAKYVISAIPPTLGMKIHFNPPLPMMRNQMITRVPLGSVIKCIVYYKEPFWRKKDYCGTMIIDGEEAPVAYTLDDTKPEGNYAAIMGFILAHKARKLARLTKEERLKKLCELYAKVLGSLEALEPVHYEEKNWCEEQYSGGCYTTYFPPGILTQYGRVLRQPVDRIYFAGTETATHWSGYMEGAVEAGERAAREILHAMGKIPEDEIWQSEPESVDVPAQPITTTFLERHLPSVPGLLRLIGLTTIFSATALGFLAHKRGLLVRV
We begin with a simple list: items and their reported IC50.
Please reply with the bare figure in nM and do not write the unit itself.

INPUT: Request the reported IC50 associated with `O=c1[nH]c2ccc(OCc3cccc(I)c3)cc2c(=O)o1`
OUTPUT: 14

INPUT: Request the reported IC50 associated with `O=c1[nH]c2ccc(OCc3ccc(F)cc3)cc2c(=O)o1`
OUTPUT: 15

INPUT: Request the reported IC50 associated with `O=c1[nH]c2ccc(OCc3ccc(Br)cc3)cc2c(=O)o1`
OUTPUT: 6.9

INPUT: Request the reported IC50 associated with `Cc1ccc(COc2ccc3[nH]c(=O)oc(=O)c3c2)cc1`
OUTPUT: 6.4
